# test_target: MBP-FL DDX3X (human, UniProt O00571 1-662)
# Sequence (O00571 whole entry): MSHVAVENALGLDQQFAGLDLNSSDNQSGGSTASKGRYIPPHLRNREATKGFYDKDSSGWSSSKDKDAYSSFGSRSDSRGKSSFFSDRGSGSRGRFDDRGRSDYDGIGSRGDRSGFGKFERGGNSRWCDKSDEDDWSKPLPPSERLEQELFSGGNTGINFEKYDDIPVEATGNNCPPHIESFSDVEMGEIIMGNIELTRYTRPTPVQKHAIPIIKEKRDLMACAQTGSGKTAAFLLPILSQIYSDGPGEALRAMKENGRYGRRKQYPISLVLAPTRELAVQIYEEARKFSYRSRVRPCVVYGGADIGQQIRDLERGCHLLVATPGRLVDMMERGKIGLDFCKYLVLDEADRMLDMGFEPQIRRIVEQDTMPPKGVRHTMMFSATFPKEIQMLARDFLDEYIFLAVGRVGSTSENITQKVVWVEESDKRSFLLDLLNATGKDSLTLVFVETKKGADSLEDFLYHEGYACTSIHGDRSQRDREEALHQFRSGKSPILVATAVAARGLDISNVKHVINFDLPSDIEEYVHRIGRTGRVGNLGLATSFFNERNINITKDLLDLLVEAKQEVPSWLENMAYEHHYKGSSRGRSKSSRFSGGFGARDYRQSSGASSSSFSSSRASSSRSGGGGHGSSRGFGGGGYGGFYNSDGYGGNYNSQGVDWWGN
# method: EMSA; 1 mM ATP-Mg; EMSA: 20 mM K-phosphate pH 7.0, 125 mM KCl, 1 mM DTT, 0.005% Tween-20, 10% glycerol (1 mM ATP-Mg for MBP-FL/Core-C), gel at room temperature; ITC: 20 mM K-phosphate pH 7.0, 50 mM KCl, 25 C; NMR: 200 mM KCl (also 120 mM), 10 C, 50 uM
# cond: protein: recombinant; tags: N-terminal His6-MBP; label: 5'-FAM; G4 monomer
readout_kind: Kd (nM)
Respond with the bare value in nM.

(Q) Entry under review: UGUGGGAGGGGCGGGUCUGGGUGC (structured_RNA) [FAM-NRAS GQ RNA] . Reported Kd?
(A) 43
